System: K-562 leukemia
Test: NCI-60 one-dose screen, 48 h (100 = growth as untreated, 0 = no growth, -100 = all killed)
Settings: 10 µM unless noted
This is part of a sample that, as a whole, favours compounds with a hit. Of some 83,000 tested, about 20% had one in any assay.
measurement_kind: growth (%)

INSERT INTO results (compound, measurement_kind, reported_measurement) VALUES
  ('COc1ccccc1/C=C/C(=O)/C=C/c1ccccc1OC', 'growth', 10.9),
  ('COc1ccc(/C=N/C2=C(C#N)C(c3ccccc3)c3c(ccc4ccccc34)O2)cc1 (stereo not given)', 'growth', 8.18),
  ('Cc1cccc(Cc2cnc(NC(=O)CCCOc3ccc(Cl)cc3)s2)c1', 'growth', 25.8),
  ('CC(C)(C)CC(N)=O', 'growth', 116),
  ('COc1ccc(/C=C/C(=O)c2cc3c(N)c(C(=O)Nc4ccccc4Cl)sc3nc2C)cc1', 'growth', 38.9),
  ('O=C1C=C(Nc2ccccc2)c2ncccc2C1=O', 'growth', -48),
  ('O=S(=O)(Nc1ccc(F)cc1)c1ccc(-c2cnc(C3CC3)o2)cc1', 'growth', 11.9),
  ('CN(C)CCN1C(=O)c2c(c3c4ccccc4n4c3c3c2c2ccccc2n3C2CC(O)C(O)C4(C)O2)C1=O (stereo not given)', 'growth', 11.4),
  ('Cc1cc(N2CCN(CC(=O)Nc3ccc4c(ccn4Cc4ccccc4)c3)CC2)nc(N2CCCCCC2)n1', 'growth', 14.8),
  ('O=C1/C(=C/c2ccc(-c3ccccc3C(F)(F)F)o2)SC(=S)N1CCc1ccc(O)cc1', 'growth', 17.5);

###

System: SW-620 colon
Experiment: NCI-60 one-dose screen, 48 h (100 = growth as untreated, 0 = no growth, -100 = all killed)
Details: 10 µM
The panel holds about 83,000 compounds, 20% with a hit somewhere; the sample as a whole holds those more often. Activity calls are given as the source filed them. How the source made its calls: active means growth percent below 10; inactive means the rest.
measurement_kind: growth

INSERT INTO assay_data (mol_smiles, test_target, measurement_kind, reported_measurement) VALUES
  ('CC(=O)/C=C/c1ccc(N(C)Cc2ccc(C(C)(C)C)cc2)cc1', 'SW-620 colon', 'growth', '88.5% (inactive)'),
  ('COc1ccc(C(=O)/C=C/c2ccc(OCc3cccc(C(F)(F)F)c3)c(OC)c2)cc1OC', 'SW-620 colon', 'growth', '59.1% (inactive)'),
  ('CC(=O)/C=C/c1ccc(OCc2ccc(C(C)(C)C)cc2)cc1', 'SW-620 colon', 'growth', '72.1% (inactive)'),
  ('CC(=O)/C=C/c1ccc(N(CCO)Cc2ccc(C(C)(C)C)cc2)cc1', 'SW-620 colon', 'growth', '83.9% (inactive)'),
  ('O=C(/C=C/c1cccc(Oc2ccc(Cl)cc2)c1)c1ccccc1', 'SW-620 colon', 'growth', '19.7% (inactive)'),
  ('COc1ccc(C(=O)/C=C/c2ccc(OCc3ccc(Cl)cc3)cc2)cc1OC', 'SW-620 colon', 'growth', '103% (inactive)');

###

System: T-47D breast
Assay: NCI-60 one-dose screen, 48 h
Conditions: 10 µM unless noted
The panel holds about 83,000 compounds, 20% with a hit somewhere; the sample as a whole holds those more often. Active and inactive are the calls of the source. How the source made its calls: active means growth percent below 10; inactive means the rest.
Outcome codes: yes (active), no (inactive)

INSERT INTO assay_data (mol_smiles, test_target, category) VALUES
  ('OCCN1CCN(c2cc(-c3cccc(OC(F)(F)F)c3)nc3ccc(N4CCCC4)cc23)CC1', 'T-47D breast', 'no'),
  ('C=C1C(=O)O[C@H]2[C@H]1CC/C(COC(=O)NCc1ccc(Cn3c(=O)sn(CCCI)c3=O)cc1)=C\CC[C@@]1(C)O[C@@H]21', 'T-47D breast', 'yes'),
  ('Cc1ccc(/C=C(\C#N)c2cc3ccccc3[nH]2)cc1', 'T-47D breast', 'no'),
  ('C[N+]1=C(/C=C\C=C\c2ccccc2)C(C)(C)c2ccccc21', 'T-47D breast', 'yes'),
  ('COc1ccc(-c2cc(-c3cccc(Cl)c3)c(C#N)c(=O)[nH]2)c(OC)c1', 'T-47D breast', 'no'),
  ('N#Cc1c(N)nnn1Cc1cc(=O)oc2ccc(O)cc12', 'T-47D breast', 'no'),
  ('Cc1oc2c(Cc3ccc(NC(=O)c4ccc(Cl)cc4)cc3)ncnc2c1C(=O)NO', 'T-47D breast', 'no'),
  ('Nc1[nH]nc(Nc2ccccc2)c1-c1nc2ccccc2s1', 'T-47D breast', 'yes'),
  ('CC1=C2[C@@H](CC1)[C@]1(C)O[C@@](C3CC3)(C[C@H]1OC(=O)CO)[C@H]2OC(=O)/C=C/c1ccccc1', 'T-47D breast', 'no');
